Hi there, I'd appreciate the recorded MIC90 for every entry that follows.
System: A. baumannii
Assay: MIC, broth microdilution, CDC/FDA Antibiotic Resistance Isolate Bank (Example 7, Tables 9, 13, 14)
Assay type: cell-based, Acinetobacter baumannii
Protocol conditions: Acinetobacter baumannii; 55 isolates of A. baumannii; read-out: MIC90

**Q:** Entry C[C@H]1COc2c(N3CCN(C)CC3)c(F)cc3c(=O)c(C(=O)O)cn1c23 needs its MIC90 filled in; supply it.
**A:** 64 µg/mL

**Q:** Entry CO/N=C(\C(=O)N[C@@H]1C(=O)N2C(C(=O)[O-])=C(C[n+]3ccn4ncccc43)CS[C@H]12)c1nsc(N)n1 needs its MIC90 filled in; supply it.
**A:** > 64 µg/mL

**Q:** Entry CN(C)c1cc(NC(=O)CNC(C)(C)C)c(O)c2c1C[C@H]1C[C@H]3[C@H](N(C)C)C(O)=C(C(N)=O)C(=O)[C@@]3(O)C(O)=C1C2=O needs its MIC90 filled in; supply it.
**A:** 1 µg/mL

**Q:** Entry O=C(O)c1cn(C2CC2)c2cc(N3CCNCC3)c(F)cc2c1=O needs its MIC90 filled in; supply it.
**A:** > 64 µg/mL

**Q:** Entry CC(C)(O/N=C(\C(=O)N[C@@H]1C(=O)N2C(C(=O)[O-])=C(C[N+]3(CCNC(=O)c4ccc(O)c(O)c4Cl)CCCC3)CS[C@H]12)c1csc(N)n1)C(=O)O needs its MIC90 filled in; supply it.
**A:** 4 µg/mL

**Q:** Entry NCC[C@H](O)C(=O)N[C@@H]1C[C@H](N)[C@@H](O[C@H]2O[C@H](CN)[C@@H](O)[C@H](O)[C@H]2O)[C@H](O)[C@H]1O[C@H]1O[C@H](CO)[C@@H](O)[C@H](N)[C@H]1O needs its MIC90 filled in; supply it.
**A:** > 64 µg/mL

* * *

Tested on: Enterobacterales
Assay: MIC, broth microdilution, CDC/FDA Antibiotic Resistance Isolate Bank (Example 7, Tables 8, 11, 12)
Format: cell-based
Protocol conditions: Escherichia coli, KUB No. 5767, AR Bank # 371; read-out: MIC
Quantity measured: MIC (µg/mL)
Use µg/mL as the unit, but write only the number.

**Q:** Entry NCC[C@H](O)C(=O)N[C@@H]1C[C@H](N)[C@@H](O[C@H]2O[C@H](CN)[C@@H](O)[C@H](O)[C@H]2O)[C@H](O)[C@H]1O[C@H]1O[C@H](CO)[C@@H](O)[C@H](N)[C@H]1O needs its MIC filled in; supply it.
**A:** 0.5

**Q:** Entry C[C@H]1[C@H](NC(=O)/C(=N\OC(C)(C)C(=O)O)c2csc(N)n2)C(=O)N1S(=O)(=O)O needs its MIC filled in; supply it.
**A:** 16

**Q:** Entry CC(C)(O/N=C(\C(=O)N[C@@H]1C(=O)N2C(C(=O)[O-])=C(C[N+]3(CCNC(=O)c4ccc(O)c(O)c4Cl)CCCC3)CS[C@H]12)c1csc(N)n1)C(=O)O needs its MIC filled in; supply it.
**A:** 0.5

**Q:** Entry CN(C)c1cc(NC(=O)CNC(C)(C)C)c(O)c2c1C[C@H]1C[C@H]3[C@H](N(C)C)C(O)=C(C(N)=O)C(=O)[C@@]3(O)C(O)=C1C2=O needs its MIC filled in; supply it.
**A:** 0.25

**Q:** Entry C[C@H]1COc2c(N3CCN(C)CC3)c(F)cc3c(=O)c(C(=O)O)cn1c23 needs its MIC filled in; supply it.
**A:** 16

**Q:** Entry CO/N=C(\C(=O)N[C@@H]1C(=O)N2C(C(=O)[O-])=C(C[n+]3ccn4ncccc43)CS[C@H]12)c1nsc(N)n1 needs its MIC filled in; supply it.
**A:** 32

* * *

System: P. aeruginosa
Assay: MIC, broth microdilution, CDC/FDA Antibiotic Resistance Isolate Bank (Example 7, Tables 10, 15)
Format: cell-based
Protocol conditions: Pseudomonas aeruginosa, P. aeruginosa KUB No. 5691, AR Bank # 258; read-out: MIC
Hi there, I'd appreciate the recorded log10 of MIC for every entry that follows.
Answers are given as log10 of MIC in µg/mL.

**Q:** Entry NCC[C@H](O)C(=O)N[C@@H]1C[C@H](N)[C@@H](O[C@H]2O[C@H](CN)[C@@H](O)[C@H](O)[C@H]2O)[C@H](O)[C@H]1O[C@H]1O[C@H](CO)[C@@H](O)[C@H](N)[C@H]1O [Amikacin, amikacin] needs its log10 of MIC filled in; supply it.
**A:** 0.60

**Q:** Entry CO/N=C(\C(=O)N[C@@H]1C(=O)N2C(C(=O)[O-])=C(C[n+]3ccn4ncccc43)CS[C@H]12)c1nsc(N)n1 [Cefozopran, cefozopran] needs its log10 of MIC filled in; supply it.
**A:** 0.00

**Q:** Entry C[C@H]1COc2c(N3CCN(C)CC3)c(F)cc3c(=O)c(C(=O)O)cn1c23 [Levofloxacin, levofloxacin] needs its log10 of MIC filled in; supply it.
**A:** -0.30

**Q:** Entry CC(C)(O/N=C(\C(=O)N[C@@H]1C(=O)N2C(C(=O)[O-])=C(C[N+]3(CCNC(=O)c4ccc(O)c(O)c4Cl)CCCC3)CS[C@H]12)c1csc(N)n1)C(=O)O [Cefiderocol, cefiderocol] needs its log10 of MIC filled in; supply it.
**A:** -0.60

**Q:** Entry C[C@H]1[C@H](NC(=O)/C(=N\OC(C)(C)C(=O)O)c2csc(N)n2)C(=O)N1S(=O)(=O)O [Aztreonam, aztreonam] needs its log10 of MIC filled in; supply it.
**A:** 0.60

**Q:** Entry CN(C)c1cc(NC(=O)CNC(C)(C)C)c(O)c2c1C[C@H]1C[C@H]3[C@H](N(C)C)C(O)=C(C(N)=O)C(=O)[C@@]3(O)C(O)=C1C2=O [Tigecycline, tigecycline] needs its log10 of MIC filled in; supply it.
**A:** 0.30

* * *

Tested on: P. aeruginosa
Assay: MIC, broth microdilution, CDC/FDA Antibiotic Resistance Isolate Bank (Example 7, Tables 10, 15)
Type: cell-based
Protocol conditions: Pseudomonas aeruginosa, P. aeruginosa KUB No. 5678, AR Bank # 245; read-out: MIC
Hi there, I'd appreciate the recorded MIC for every entry that follows.

**Q:** Entry CN(C)c1cc(NC(=O)CNC(C)(C)C)c(O)c2c1C[C@H]1C[C@H]3[C@H](N(C)C)C(O)=C(C(N)=O)C(=O)[C@@]3(O)C(O)=C1C2=O needs its MIC filled in; supply it.
**A:** 16 µg/mL

**Q:** Entry NCC[C@H](O)C(=O)N[C@@H]1C[C@H](N)[C@@H](O[C@H]2O[C@H](CN)[C@@H](O)[C@H](O)[C@H]2O)[C@H](O)[C@H]1O[C@H]1O[C@H](CO)[C@@H](O)[C@H](N)[C@H]1O needs its MIC filled in; supply it.
**A:** > 64 µg/mL

**Q:** Entry CO/N=C(\C(=O)N[C@@H]1C(=O)N2C(C(=O)[O-])=C(C[n+]3ccn4ncccc43)CS[C@H]12)c1nsc(N)n1 needs its MIC filled in; supply it.
**A:** > 64 µg/mL

* * *

System tested: OXA-23 (Acinetobacter baumannii, UniProt Q9L4P2)
Sequence (Q9L4P2 18-273): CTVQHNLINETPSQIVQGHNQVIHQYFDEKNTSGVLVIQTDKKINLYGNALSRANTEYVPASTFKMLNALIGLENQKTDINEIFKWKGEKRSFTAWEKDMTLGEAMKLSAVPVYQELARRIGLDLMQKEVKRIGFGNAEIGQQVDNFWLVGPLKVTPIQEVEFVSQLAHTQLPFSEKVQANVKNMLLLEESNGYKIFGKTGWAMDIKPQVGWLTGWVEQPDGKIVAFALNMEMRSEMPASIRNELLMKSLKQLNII
Assay: Ki,app against β-lactamase (Example 1, Table 1)
Assay type: biochemical
Protocol conditions: OXA-23, class D; 30 min preincubation; n.d.: too low inhibitor activity at 100 µmol/L; read-out: Ki app
Quantity measured: pKi
Entry type: numeric. Quantity: pKi, the -log10 of concentration in molar units.

**Q:** Entry O=C(NC1CCNCC1)[C@@H]1CC[C@@H]2CN1C(=O)N2OS(=O)(=O)O needs its pKi filled in; supply it.
**A:** 5.25

* * *

System: P. aeruginosa
Assay: MIC, broth microdilution, CDC/FDA Antibiotic Resistance Isolate Bank (Example 7, Tables 10, 15)
Format: cell-based
Protocol conditions: Pseudomonas aeruginosa, P. aeruginosa KUB No. 5816, AR Bank # 511; read-out: MIC
Hi there, I'd appreciate the recorded MIC for every entry that follows.

**Q:** Entry C[C@H]1[C@H](NC(=O)/C(=N\OC(C)(C)C(=O)O)c2csc(N)n2)C(=O)N1S(=O)(=O)O needs its MIC filled in; supply it.
**A:** 4 ng/mL

**Q:** Entry CC(C)(O/N=C(\C(=O)N[C@@H]1C(=O)N2C(C(=O)[O-])=C(C[N+]3(CCNC(=O)c4ccc(O)c(O)c4Cl)CCCC3)CS[C@H]12)c1csc(N)n1)C(=O)O needs its MIC filled in; supply it.
**A:** 0.25 ng/mL

**Q:** Entry CO/N=C(\C(=O)N[C@@H]1C(=O)N2C(C(=O)[O-])=C(C[n+]3ccn4ncccc43)CS[C@H]12)c1nsc(N)n1 needs its MIC filled in; supply it.
**A:** 0.5 ng/mL

**Q:** Entry CN(C)c1cc(NC(=O)CNC(C)(C)C)c(O)c2c1C[C@H]1C[C@H]3[C@H](N(C)C)C(O)=C(C(N)=O)C(=O)[C@@]3(O)C(O)=C1C2=O needs its MIC filled in; supply it.
**A:** 4 ng/mL

**Q:** Entry NCC[C@H](O)C(=O)N[C@@H]1C[C@H](N)[C@@H](O[C@H]2O[C@H](CN)[C@@H](O)[C@H](O)[C@H]2O)[C@H](O)[C@H]1O[C@H]1O[C@H](CO)[C@@H](O)[C@H](N)[C@H]1O needs its MIC filled in; supply it.
**A:** 4 ng/mL

**Q:** Entry C[C@H]1COc2c(N3CCN(C)CC3)c(F)cc3c(=O)c(C(=O)O)cn1c23 needs its MIC filled in; supply it.
**A:** 1 ng/mL
